Data origin, for the record: patent US20210040232A1

Some binders, each annotated with its measured pEC50.
TARGET: T1, human CTLA-4 (amino acids M1-N223) on stably transfected VI-fibroblast cells (human, UniProt P16410 36-223)
T1 construct: also called VI-fibroblast/hCTLA-4
T1 sequence (P16410 36-223 limits assumed): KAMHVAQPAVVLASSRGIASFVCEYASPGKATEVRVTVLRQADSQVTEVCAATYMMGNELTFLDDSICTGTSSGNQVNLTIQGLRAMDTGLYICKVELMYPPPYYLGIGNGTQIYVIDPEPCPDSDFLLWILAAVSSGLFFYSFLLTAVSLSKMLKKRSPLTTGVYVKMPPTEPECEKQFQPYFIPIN
ASSAY: ECL cell binding, VI-fibroblast/hCTLA-4 cells;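 also: antibodies bound to the cells on carbon electrode plates, detected via SULFO-TAG anti-IgG secondary (1 h, RT), electrochemiluminescence read as RLU over a concentration range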
pEC50 is a log-scale quantity: -log10 of the concentration expressed in molar.

Answered cases to consult:
BINDER | OBSERVED MEASUREMENT
H1H19278P (antibody, human IgG1, V domains shown) VH: QVQLVESGGGVVQPGRSLRLSCAASGFTFSSYGMNWVRQAPGKGLEWVAVTWYDGSNKHYADSVKGRFTISRDNSKNTLYLQMYSLRAEDTAMYYCVRGGHLGAFDIWGQGTMVTVSS VL: EIVLTQSPGTLSLSPGERATLSCRASQSVSSYLAWYQQKPGQAPRLLIYGASSRATGIPDRFSGGGSGTDFTLTISRLEPEDFAVYYCQQYGSSPFTFGPGTKVDIK | 9.66
H1H19303P (antibody, human IgG1, kappa, V domains shown, also called REGN4659) VH: EVQLVESGGGLVQPGGSLRLSCAASGFTFSNYEMSWVRQAPGKGLEWVSSIRTSGTTKYYADSMKGRFTISRDNAKNSLYLQMNSLRAEDTAVYYCAGGGTFLHYWGQGTLVTVSS VL: DIQMTQSPSSVSASVGDRVTITCRASQGIASYLAWYQQKPGKAPKLLIYAASSLQTGVPSRFSGSGYGTDFTLTISSLQPEDFATYYCQQAKSFPMYTFGQGTKLEIKR | 9.68
H1H19281P (antibody, human IgG1, V domains shown) VH: QVQLVESGGGVVQPGRSLRLSCAASGLTFSYYGMHWVRQAPGKGLEWVAVISYDGSNKYYADSVKGRFTISRDNSKNTLYLQMNSLRAEDAAVYYCAKDLGGDDYYGMDVWGQGTTVTVSS VL: EIVLTQSPGTLSLSPGERATLSCRASQSVSRTYLAWYQQKPGQAPRLLIYGAFSRATGIPDRFSGSGSGTDFTLTISRLEPEDFAVYYCQQYGSSPYTFGQGTKLEIK | 10.12
H1H19294P (antibody, human IgG1, V domains shown) VH: QVQLVQSGAEVKMSGASVRVSCKASGYTFTSYGISWMRQAPGQGLEWMGWITAYNGNSNYAQKLQGRVTMTTDTSTGTAYMELRSLTSDDTAVYYCARRGDYLGVFPYWGQGTLVTVSS VL: DIQMTQSPSSLSASVGDRVTITCRASQSISSYLNWYQQKPGKAPNLLIYTASSLQSGVPSRFSGSGSGTDFTLTISSLQPEDFATYYCQQSYSSPLTFGGGTKVEIK | 9.17

Let us examine a further case.
Documented pEC50 of H1H19307P (antibody, human IgG1, V domains shown) VH: EVQLVESGGGLVQPGGSLRLACAASGFTFSDYYMDWVRQVPGKGLEWVGRSRDKANSFTTEYVASVKGRFTISREDSKNSVYLQMNSLKTEDTAVYYCARTNYDFSLDVWGQGTTVTVSS VL: DIQMTQSPSSLSASVGDRVTITCRASQDINNYLAWFQQKPGNAPKSLIYAASSLQSGVPSKFSGSGSGTDFTLTISSLQPEDFATYYCQQYSTYPITFGQGTRLEIK : 8.43
